Type: physicochemical
details: HPLC on reversed phase columns, method [a]: pH 2.7, 0.1% formic acid in water / acetonitrile, linear gradient 10% to 95% acetonitrile
reported endpoint: log P

What the record says about C#Cc1cnc2ccc(C3=NOC(C)(C(=O)NCC4OCCc5ccccc54)C3)cc2c1 (single isomer, unassigned) [compound 245] : log P is 2.92^[a]

Now for a further compound.
What the record says about COC1(C(=O)NC2CCC2)CC(c2cc(Cl)c3ncc(Br)cc3c2)=NO1 (stereo not shown) [compound 576] : log P is 3.33[a]

---

Parameter: log P. Scope: all listed entries.
Assay type: physicochemical
details: HPLC on reversed phase columns, method [a]: pH 2.7, 0.1% formic acid in water and acetonitrile, linear gradient 10% to 95% acetonitrile

# example entries with known answers
What the record says about C#Cc1cnc2ccc(C3=NOC(C)(C(=O)NCc4ccnc(SC(C)(C)C)c4)C3)cc2c1 (centres unmarked) [compound 796] : log P is 3.02[a]

What the record says about COc1ncc(CNC(=O)C2(C)CC(c3ccc4ncc(Br)cc4c3)=NO2)cn1 (centres unmarked) [compound 688] : log P is 2.25[a]

What the record says about C#CC(CC)(CC)NC(=O)C1(C)CC(c2ccc3ncc(Br)cc3c2)=NO1 (centres unmarked) [compound 717] : log P is 3.96[a]

What the record says about CC(C)c1ccnc(CNC(=O)C2(C)CC(c3ccc4ncc(Br)cc4c3)=NO2)c1 (centres unmarked) [compound 750] : log P is 2.05[a]

What the record says about C#Cc1cnc2ccc(C3=NOC(C)(C(=O)NCc4cccc(CC)n4)C3)cc2c1 (centres unmarked) [compound 749] : log P is 1.67[a]

What the record says about C#Cc1cnc2ccc(C3=NOC(C)(C(=O)NCc4cc(C#N)ccn4)C3)cc2c1 (centres unmarked) [compound 751] : log P is 2.20[a]

More entries:
What the record says about COc1ccc(CCNC(=O)C2(OC)CC(c3ccc4ncc(Br)cc4c3)=NO2)cc1OC (centres unmarked) [compound 712] : log P is 2.94[a]

What the record says about C#Cc1cnc2ccc(C3=NOC(C)(C(=O)NCc4ccncc4F)C3)cc2c1 (centres unmarked) [compound 804] : log P is 2.02[a]
